pIC50: recorded values
system: MDA-MB-435S.luc cells; format: cell-based, human; settings: MDA-MB-435S.luc cells, 24 h, MTT; read-out: IC50
Interpret pIC50 as the negative base-10 log of the concentration measured in mol/L.

- KFAKFAKKFAKFAKKFAKQHWSYGLRPG [Phor18-LHRH]: 6.06

Now consider the entry below.
The sequence KFAKFAKKFAKFAKKFAK [Phor18, reference compound] on MDA-MB-435S.luc cells: pIC50 was 5.69

====

Test system: MDA-MB-435S.luc cells
Format: cell-based, human
Settings: MDA-MB-435S.luc cells; places that print μm (Table 2: lytic peptide row + hinge column + ligand section); read-out: IC50
Method: This example describes screening for cell toxicity (IC50) and hemolytic activity using a human breast cancer cell line. The human melanoma cell line MDA-MB-435S.luc, which over expresses chorionic gonadotrophin (CG) and luteinizing hormone-releasing hormone (LHRH) receptors, was used to screen at passage numbers 248-252. […] Data were processed and analyzed using Graph Pad Prizm 4™ software (Graph Pad Prizm, Inc). Statistical analysis for significance was determined by a two-tailed Student's T-test. […]
Recorded Metric: pIC50
Interpret pIC50 as the negative base-10 log of the concentration measured in mol/L.

The sequence listed as KFAKFAKKFAKFAKKFAKQHWSYGLRPG [Phor18-LHRH] shows pIC50 equal to 6.06

====

tested on: MDA-MB-435S.luc cells; assay type: cell-based, human; conditions: MDA-MB-435S.luc melanoma cell line; read-out: IC50 in Human Cancer Cell Lines
Recorded Metric: IC50 (nM)
Only the number, expressed in nM, is required.

The sequence listed as KFAKFAKKFAKFAKKFAKQHWSYGLRPG [Phor18-LHRH] shows IC50 equal to 860

====

tested on: 2C12; test: Cytotoxicity in 2C12 murine ovarian cancer cells (24 h); type: cell-based; conditions: 2C12, 24 h; read-out: In vitro activity (IC50)
Recorded Metric: pIC50
Interpret pIC50 as the negative base-10 log of the concentration measured in mol/L.

The sequence listed as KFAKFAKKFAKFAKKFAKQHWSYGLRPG [Phor18-LHRH] shows pIC50 equal to 5.99
